Values from PubChem BioAssay (NCI)

Known TGI of a selection of compounds
- Tested on: SF-295 CNS
- measurement.notes: NCI tumour cell line growth inhibition, 48 h

Below, each entry is followed by its recorded TGI result.
Can you share its TGI? I mean this compound: COc1ccc(OC)c(NC(=O)C2=C(C)NC(C)=C(C(=O)Nc3cc(OC)ccc3OC)C2c2ccccc2)c1
> 100 µM

Do the same for Cc1ccc(N=Nc2c(O)c(C(=O)O)cc3ccccc23)cc1C please
> 100 µM

Do the same for COc1ccc2nc(-c3cccs3)cc(C(O)CN3CCSCC3)c2c1 (configuration not stated) please
> 100 µM

Further cases:
Can you share its TGI? I mean this compound: COc1cccc2c1c(C(=O)C(=O)Nc1cc(C)no1)cn2Cc1ccc(F)cc1
> 100 µM

Do the same for CCOC(=O)c1c2c(n3ccccc13)C(=O)c1ccccc1C2=O please
> 100 µM

Do the same for COc1ccc(OC)c(/C=C2\SC(=S)NC2=O)c1 please
> 100 µM

Do the same for COc1ccc(/C=C(/C#N)C(N)=O)cc1OC please
> 100 µM

Do the same for Nc1nc2c(c3ncncc13)C(c1cccc(C(F)(F)F)c1)Cc1ncncc1-2 (configuration not stated) please
10.7 µM

Do the same for O=C(c1cccc2ccccc12)C1(Br)S(=O)(=O)OCCOS1(=O)=O please
> 100 µM

Do the same for COCCN(C(C)=O)C1CCC2(SCCS2)c2[nH]c3ccccc3c21 (configuration not stated) please
> 100 µM

Do the same for CC(=O)N1C(c2[nH]c3ccccc3c2-c2ccccc2)CCN1c1ccccc1 (configuration not stated) please
> 10 µM

Do the same for Nc1ccn(CCNCCn2cnc3nc(N)[nH]c(=O)c32)c(=O)n1 please
> 100 µM

Do the same for [N-]=[N+]=Nc1c(C=O)c(=O)n2c3c(cccc13)CCC2 please
> 76.6 µM

Do the same for COc1ccc(-c2nc3sc4c(c3c(=O)[nH]2)CCCCCC4)cc1 please
> 33.2 µM

Do the same for CC1(C)C(=NNC(=O)C[N+](C)(C)C)C(C)(C)C1=NNC(=O)C[N+](C)(C)C please
> 100 µM
